measurementNotes: Toxicity liver stage against HepG2, at 10uM
Type: cell-based
Set-up: test concentration 10 uM, cell line HepG2-A16-CD81EGFP
conditionSet: human, HepG2-A16-CD81EGFP cells; read-out: INHIBITION

{"columns": ["compound", "cytotoxicity at 10 µM [%]"],
 "data": [
  ["O=C(CN1CCN(c2ccc3nncn3n2)CC1)NC1CCCC1", -33.9],
  ["CCC[C@@H]1CN(S(=O)(=O)c2ccc(C)c(F)c2)C[C@H]1N(C)C", 26.7],
  ["Cc1nc(NC(=O)NCc2cccnc2NCCN(C)C)sc1C", 4.51],
  ["Cc1noc(C)c1CN(C)C(=O)C1(NS(C)(=O)=O)CCCCC1", -11.3],
  ["CCc1nc(CN2CCCN(C(=O)C(CC)OC)CC2)cs1 (centres undefined)", -15.8],
  ["N#Cc1ccc(CC(=O)N2CCCC(n3cccn3)C2)cc1 (centres undefined)", -1.95],
  ["COCC(=O)Nc1cnc(N2CCOCC2)nc1", -10.7],
  ["COc1cccc(S(=O)(=O)N2CCC(O)(CN(C)C)C2)c1 (centres undefined)", 3.85],
  ["O=C1N(Cc2ccncc2)CCC12CCCN(c1ncc(F)cn1)C2 (centres undefined)", -7.38],
  ["C[C@@H]1C[C@H]2CN(C(=O)C3=CCCCC3)C[C@H]2O1", 7.18],
  ["COCCC1COC2(CCN(C(=O)c3cccnc3)CC2)C1 (centres undefined)", -72.4],
  ["Cc1csc2ncnc(N3CCC(Cn4cc(C(C)(C)O)nn4)CC3)c12", 49.2],
  ["Cc1cc(C)c2nc(CN3CCC(CN)CC3)cc(O)c2c1", 2.55],
  ["CC(C)(C)OC(=O)NC(C)(C)c1noc(CSc2nncs2)n1", 16.6],
  ["CNC(=O)c1cc(C2CCCNC2)n[nH]1 (centres undefined)", 9.03],
  ["Cc1cc2[nH]c(CN3CCCCC3c3cccc(F)c3)cc(=O)n2n1 (centres undefined)", 1.29],
  ["C1CCN(CCOC2CCNC2)CC1 (centres undefined)", 6.32],
  ["Cc1nc(CN2CCCC(NCc3ccc(Cl)s3)C2)no1 (centres undefined)", -3.18],
  ["Fc1cccc(CCN(c2ccc3nnnn3n2)C2CC2)c1", 4.21],
  ["COCCN1C(=O)[C@]2(CC[C@@H]3CN(C(=O)NCC(C)C)C[C@@H]32)N=C1C", -11.8],
  ["Cc1c(F)cc(C(=O)NCC(F)(F)F)cc1NCC(=O)N(C)C", 10.2],
  ["Cc1cc(NC(=O)NCc2ccccc2OC(F)F)n(C)n1", 2.29],
  ["CCOCC(=O)N1C[C@@H](O)[C@H](NC(C)=O)C1", -4.48],
  ["CCn1cc(CN2CCCN(C(=O)CCc3cnn(C)c3)CC2)cn1", 0.153]
]}
